# assay target: CD117 (KIT, c-Kit) (UniProt P10721 P10721:26-976)
# Sequence (P10721 26-976, one chain of several): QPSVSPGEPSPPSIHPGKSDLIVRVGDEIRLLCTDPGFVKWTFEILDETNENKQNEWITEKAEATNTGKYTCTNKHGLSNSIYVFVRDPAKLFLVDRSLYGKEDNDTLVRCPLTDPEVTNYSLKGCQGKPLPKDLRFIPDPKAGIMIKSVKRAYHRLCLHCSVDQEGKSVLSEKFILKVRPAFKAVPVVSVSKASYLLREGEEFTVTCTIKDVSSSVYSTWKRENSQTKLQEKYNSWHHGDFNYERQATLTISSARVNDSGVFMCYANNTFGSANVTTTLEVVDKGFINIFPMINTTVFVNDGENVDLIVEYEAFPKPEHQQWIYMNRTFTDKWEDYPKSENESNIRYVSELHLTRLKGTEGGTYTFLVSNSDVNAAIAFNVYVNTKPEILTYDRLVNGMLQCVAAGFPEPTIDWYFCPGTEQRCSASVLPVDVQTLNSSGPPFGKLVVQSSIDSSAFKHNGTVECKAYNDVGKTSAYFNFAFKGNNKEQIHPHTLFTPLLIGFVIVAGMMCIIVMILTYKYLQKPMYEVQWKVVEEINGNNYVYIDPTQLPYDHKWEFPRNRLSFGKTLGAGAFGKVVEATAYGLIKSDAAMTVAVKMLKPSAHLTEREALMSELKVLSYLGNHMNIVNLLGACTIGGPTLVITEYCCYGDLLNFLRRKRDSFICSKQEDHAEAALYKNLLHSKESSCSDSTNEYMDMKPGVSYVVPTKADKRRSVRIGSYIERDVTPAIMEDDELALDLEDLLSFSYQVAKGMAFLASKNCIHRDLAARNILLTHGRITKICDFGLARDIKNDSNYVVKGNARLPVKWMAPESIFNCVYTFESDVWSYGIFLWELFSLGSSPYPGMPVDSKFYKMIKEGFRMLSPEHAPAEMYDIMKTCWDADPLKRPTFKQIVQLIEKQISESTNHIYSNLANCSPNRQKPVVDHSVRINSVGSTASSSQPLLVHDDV
# procedure details: flow; HEL cells, room temperature 30 min; no binding to CD117-negative CA46, U937, MDA-MB-468, LNCaP cells
# applied conditions: tags: endogenous on HEL AML cell line (ATCC) or primary AML marrow cells; label: 5'-Cy3; G4
measurement label: pKd
Field pKd (float): negative decimal logarithm of the concentration in molar.

The recorded pKd for entry CD117 aptamer #1F (full length) (ssDNA) DNA: GAGGCATACCAGCTTATTCAAGGGGCCGGGGCAAGGGGGGGGTACCGTGGTAGGACATAGTAAGTGCAATCTGCGAA equals 8.20
